Every entry's value here was drawn from the Human Domainome abundance scans (Beltran et al. 2025).

B1: WW domain-containing transcription regulator protein 1, residues 116 to 162; numbered along this chain, Q9GZV5 (parent)
chain: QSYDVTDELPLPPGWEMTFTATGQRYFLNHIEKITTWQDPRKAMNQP

# Variants of: B1
# test.protocol: abundance fitness (aPCA) (normalised: wild type 0, dead -1); higher = more abundant; growth selection in yeast, the domain comes from the species named
# reported.conditions: Homo sapiens
I'd be grateful if you could share measured abundance fitness for these entries.
Numbers only.

T18G :: 0.018
P12G :: -0.49
Y3P :: 0.087
P13S :: -0.067
Q38F :: -0.086
D39C :: -0.572

Kindly give each listed record's abundance fitness.
1. F19C
2. D7F
3. K42Y
4. A43D
5. Q46W
6. H30L
7. E32P
8. G23K

Reply |
1: -0.274; 2: -0.312; 3: -0.164; 4: 0.071; 5: -0.046; 6: -0.344; 7: -0.805; 8: -0.412

Kindly give each listed record's abundance fitness.
1. T6L
2. N45Y
3. P10S
4. D39H
5. T35D
6. P13N
7. T35I

Reply |
1: -0.104; 2: 0.039; 3: -0.109; 4: -0.202; 5: -0.728; 6: -0.022; 7: -0.419

Kindly give each listed record's abundance fitness.
1. E16A
2. G23L

Reply |
1. -0.217
2. -1.07
